Values were extracted from patent US7781428B2.

target of assay: mineralocorticoid receptor (MR) (Homo sapiens, UniProt P08235)
assay overview: Cell-based Gal4 response element-controlled luciferase reporter assay (MR antagonism)
experimental conditions: Huh7 human liver cells transfected with Gal4 DBD-MR LBD fusion and luciferase reporter; block of agonist-induced activation; overnight incubation
Quick reference for log10(IC50) among some molecules
Base-10 log of IC50, unit nM.

Known log10(IC50) results, listed for orientation:
molecule	result value
N#Cc1ccc(N2N=C3c4ccc(C(=O)O)cc4CCC3C2c2ccc(F)cc2)cc1C(F)(F)F (racemic)	2.23
N#Cc1ccc(N2N=C3c4ccc(C(=O)NCCCCCC(=O)O)cc4CC[C@@H]3[C@@H]2c2ccc(F)cc2)cc1Cl (racemic)	2.05
N#Cc1ccc(N2N=C3c4ccc(C(=O)O)cc4CCC3C2C2CCOCC2)cc1Cl (racemic)	2.10

API: value(readout= log10(IC50), system= mineralocorticoid receptor (MR) (Homo sapiens, UniProt P08235), query= Cc1cc(N2N=C3c4ccc(C(=O)O)cc4OC[C@@H]3[C@@H]2C2=CCCC2)ccc1C#N (racemic) )
1.11

What about this molecule? N#Cc1ccc(N2N=C3c4ccc(C(=O)O)cc4CC[C@@H]3[C@@H]2c2ccc(F)cc2)cc1
2.31

How about N#Cc1ccc(N2N=C3c4ccc(C(=O)O)cc4CC[C@H]3[C@H]2C2CCCC2)cc1 ?
3.46

N#Cc1ccc(N2N=C3c4ccc(C(=O)O)cc4OCC3C2C2CCCC2)cc1C(F)(F)F (racemic) [Example 68] ?
1.72

Next up: N#Cc1ccc(N2N=C3c4ccc(O)cc4CCC3C2c2ccc(F)cc2)cc1Cl (racemic)
1.93

----------
target of assay: mineralocorticoid receptor (MR) (Homo sapiens, UniProt P08235)
assay overview: Cell-based Gal4 response element-controlled luciferase reporter assay (MR antagonism)
experimental conditions: Huh7 human liver cells transfected with Gal4 DBD-MR LBD fusion and luciferase reporter; block of agonist-induced activation; overnight incubation
quantity: IC50 (nM)
# value in nM; strip the unit string

The examples below pair each entry with its known result.
compound	output unit	result value
N#Cc1ccc(N2N=C3c4ccc(C(=O)O)cc4CCC3C2C2CCCC2)cc1 (racemic)	nM	89
N#Cc1ccc(N2N=C3c4ccc(O)cc4CC[C@@H]3[C@@H]2c2ccc(F)cc2)cc1C(F)(F)F	nM	113
Cc1ncc(C2C3CCc4cc(C(=O)O)ccc4C3=NN2c2ccc(C#N)c(Cl)c2)s1 (racemic)	nM	103

Recorded IC50 for Cc1cc(N2N=C3c4ccc(C(=O)O)cc4CCC3C2c2ccc(F)cc2)ccc1C#N (racemic) with mineralocorticoid receptor (MR) (Homo sapiens, UniProt P08235), please?
81

Follow-up entry: N#Cc1ccc(N2N=C3c4ccc(C(=O)O)cc4OCC3C2C2CCCC2)cc1Cl (racemic) [Example 64]
65

----------
Item-by-item account of log10(IC50)
target of assay: mineralocorticoid receptor (MR) (Homo sapiens, UniProt P08235)
Sequence (P08235 726-964 limits assumed): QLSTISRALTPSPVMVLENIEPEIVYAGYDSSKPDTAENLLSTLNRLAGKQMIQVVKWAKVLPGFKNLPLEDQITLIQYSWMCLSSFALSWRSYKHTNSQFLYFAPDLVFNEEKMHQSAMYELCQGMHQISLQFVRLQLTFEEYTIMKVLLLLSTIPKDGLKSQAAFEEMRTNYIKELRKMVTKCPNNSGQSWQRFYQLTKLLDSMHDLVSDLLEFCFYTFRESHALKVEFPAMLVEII
assay overview: Cell-based Gal4 response element-controlled luciferase reporter assay (MR antagonism)
experimental conditions: Huh7 human liver cells transfected with Gal4 DBD-MR LBD fusion and luciferase reporter; block of agonist-induced activation; overnight incubation
Short version: log10 scale, IC50, nM.

compound	log10(IC50)
N#Cc1ccc(N2N=C3c4ccc(C(=O)O)cc4OC[C@@H]3[C@@H]2c2ccc(F)cc2)cc1Cl [Example 56]	2.48
N#Cc1ccc(N2N=C3c4ccc(C(=O)O)cc4CC[C@@H]3[C@@H]2C2CCCC2)cc1 [Example 19]	1.58
N#Cc1ccc(N2N=C3c4ccc(C(=O)O)cc4OC[C@H]3[C@H]2C2CCCC2)cc1Cl [Example 66]	3.53
N#Cc1ccc(N2N=C3c4ccc(C(=O)NCCCCC(=O)O)cc4CC[C@@H]3[C@@H]2c2ccc(F)cc2)cc1Cl (racemic) [Example 104]	2.09
N#Cc1ccc(N2N=C3c4ccc(C(=O)O)cc4OCC3C2c2ccc(F)cc2)cc1Cl (racemic) [Example 55]	2.93

Can you look up log10(IC50) on mineralocorticoid receptor (MR) (Homo sapiens, UniProt P08235) for N#Cc1ccc(N2N=C3c4ccc(C(=O)NCCC(N)=O)cc4CC[C@@H]3[C@@H]2c2ccc(F)cc2)cc1Cl (racemic) [Example 102] ?
1.54
